assay: Transport (Papp) across Caco-2 cell monolayers, AP to BL; details: human, Caco-2, Apparent permeability coefficients of oxycodone (±standard deviation) (n = 3), oxycodone 0.02 mg/ml, AP-to-BL, 80 min; ibuprofen 3.2 mg/ml (precipitate)
READOUT_NAME: Papp A→B at 80 min, 0.02 mg/ml (×10⁻⁶ cm/s)

[[record]]
molecule = "COc1ccc2c3c1O[C@H]1C(=O)CC[C@@]4(O)[C@@H](C2)N(C)CC[C@]314.Cl [oxycodone HCl, oxycodone hydrochloride]"
recorded_measurement = 50.5


###

test: Transport (Papp) across Caco-2 cell monolayers, AP to BL; details: human, Caco-2, Apparent permeability coefficients of oxycodone (±standard deviation) (n = 3), after 20 minutes; ibuprofen 3.2 mg/ml
READOUT_NAME: Papp A→B at 20 min, 0.02 mg/ml (×10⁻⁶ cm/s)

[[record]]
compound = "COc1ccc2c3c1O[C@H]1C(=O)CC[C@@]4(O)[C@@H](C2)N(C)CC[C@]314.Cl [oxycodone HCl, oxycodone hydrochloride]"
readout_name = "Papp A→B at 20 min, 0.02 mg/ml"
recorded_measurement = 16

